# Tested on: UACC-257 melanoma
# Test Description: NCI tumour cell line growth inhibition, 48 h; in the data active = GI50 below about 0.43 µM; inactive = the rest
Assign a class; possible classes are Yes for active, No for inactive

Enquiry: Assay outcome for `COc1cc(Cn2c(-c3ccccc3)c(Cl)c3c2-c2oncc2CC3)cc(OC)c1` : what was it?
Return: No

Enquiry: Per the assay record, what outcome was assigned to `Cc1ncc(C(=O)Nc2ccc(CN3CCN(C)CC3)c(C(F)(F)F)c2)cc1C#Cc1cnc(N)c2ccncc12` ?
Return: No

Enquiry: In this assay, the call recorded for `C=C(C)[C@@H]1CC[C@]2(C)[C@H](CC=C3[C@@H]4CC(C)(C)CC[C@]4(C(N)=O)CC[C@]32C)[C@@]1(C)CCC#N` was what?
Return: No

Enquiry: Any idea what this test logged for `Cn1cc(C2=C(c3cn(CCCCO)c4ccccc34)C(=O)NC2=O)c2ccccc21` ?
Return: No

Enquiry: Tell me the assay call for `CCC[CH2][Sn]([Cl])([CH2]CCC)[CH2]CCC` please.
Return: Yes

Enquiry: What did this assay record as the result for C#C[C@]1(O)CCC2C3CCc4cc(O)ccc4C3CC[C@@]21C (stereo partly specified) ?
Return: No

Enquiry: In this assay, the call recorded for `COc1ccc(/C=C2/N=C(c3ccccc3)N(c3c(C)n(C)n(-c4ccccc4)c3=O)C2=O)cc1OC` was what?
Return: No

Enquiry: Returns: the outcome recorded for CCC(/C=C/C1OC(=O)C=CC1C)=C\C(C)C/C=C/C(C)=C/C(C)C(=O)C(C)C(O)C(C)C/C(C)=C/C(=O)O (stereo unspecified) in this assay.
Return: Yes

Enquiry: Write down the call the test reported for this molecule. Item: COc1cccc2c1C(=O)c1c(O)c3c(c(O)c1C2=O)C[C@](O)(C(=O)CO)C[C@H]3O[C@@H]1C[C@@H](NC(=O)CCCCCN(C)C2(c3ccc(F)cc3)CC3CCC2C3)[C@H](O)[C@@H](C)O1 (stereo partly specified)
Return: No

Enquiry: I would be grateful if you could indicate the recorded call for `O=C1/C(=C/c2cccc(Cl)c2Cl)N=C(c2ccccc2)N1C1CC1` .
Return: No

Enquiry: Each molecule tested received a call. Report the one for `C[C@@H]1CC[C@@H]2[C@@H]1[C@H](OC(=O)/C=C/c1ccccc1)[C@]1(C3CCCCC3)C[C@@H](OC(=O)CO)[C@@]2(C)O1` .
Return: No
